# Tested on: Yersinia pseudotuberculosis
# ASSAY_METHOD_TEXT: growth AUC normalised to DMSO control (fraction of control); higher = less growth inhibition, active = hit call of the paper
# CONDITION_SET: 20 µM
Counter-ions that a name gives are not always drawn.
REPORTED_METRIC: growth AUC normalised to DMSO control
// response body must contain only the number

Q) Which growth AUC normalised to DMSO control reading was recorded for the molecule c1ccc([C@H]2CN3CCSC3=N2)cc1 [Levamisole hydrochloride] ?
A) 1

Q) Entry to check: Cc1ncc([N+](=O)[O-])n1CC(O)CCl (stereo unspecified) [Ornidazole]
A) 0.964

Q) Entry to check: CC(=O)Oc1cc(C(F)(F)F)ccc1C(=O)O [Triflusal]
A) 0.954

Q) Entry to check: CC(=O)NCCCS(=O)(=O)O [Acamprosate calcium]
A) 0.99

Q) Entry to check: CN1CCC(=C2c3ccccc3C=Cc3ccccc32)CC1 [Cyproheptadine hydrochloride]
A) 1

Q) Entry to check: Nc1ccc(/N=N/c2ccccc2)c(N)n1 [Phenazopyridine hydrochloride]
A) 0.958

Q) Entry to check: COc1cc2nc(N(C)CCCNC(=O)C3CCCO3)nc(N)c2cc1OC (stereo unspecified) [Alfuzosin hydrochloride]
A) 0.978

Q) Entry to check: N[C@@H]1CONC1=O [D-cycloserine]
A) 1.01

Q) Entry to check: N=C(N=C(N)N)N1CCOCC1 [Moroxidine hydrochloride]
A) 0.965

Q) Entry to check: CC(=O)S[C@@H]1CC2=CC(=O)CC[C@]2(C)[C@H]2CC[C@@]3(C)[C@@H](CC[C@@]34CCC(=O)O4)[C@H]12 [Spironolactone]
A) 1.02

Q) Entry to check: CN1CCCN=C1/C=C/c1cccc(O)c1 [Oxantel pamoate]
A) 1.02

====

# Tested on: P. vulgatus RND KO;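 further: active when median AUC fell below 0.1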
# ASSAY_METHOD_TEXT: growth AUC normalised to DMSO control (median) (fraction of control); higher = less growth inhibition, active = hit call of the paper
# CONDITION_SET: 20 µM
Structures can show the parent of a compound that is named as a salt.
Outcome field: choose from active, inactive

Q) Could you kindly confirm the outcome this assay logged for Oc1cc(O)c2c(c1)O[C@H](c1ccc(O)c(O)c1)[C@@H](O)C2 [Cianidanol] ?
A) inactive

Q) Entry to check: CC(C)(C)NCC(O)COc1cccc2c1CC(O)C(O)C2 (stereo not given) [Nadolol]
A) inactive

Q) Entry to check: CN(C/C=C/c1ccccc1)Cc1cccc2ccccc12 [Naftifine hydrochloride]
A) inactive

Q) Entry to check: Cc1cc(C(C)(C)C)c(O)c(C)c1CC1=NCCN1 [Oxymetazoline hydrochloride]
A) inactive

Q) Entry to check: CCCCCCCCCCCCCCCCCCCCCC(=O)Nc1ccn([C@@H]2O[C@H](CO)[C@@H](O)[C@@H]2O)c(=O)n1 [Enocitabine]
A) inactive

Q) Entry to check: OCc1cc(C(O)CNCCCCCCOCCCCc2ccccc2)ccc1O (stereo not given) [Salmeterol]
A) inactive

Q) Entry to check: CC[N+](C)(C)c1cccc(O)c1 [Edrophonium chloride]
A) inactive

Q) Entry to check: C#CCN[C@@H]1CCc2ccccc21 [Rasagiline]
A) inactive

Q) Entry to check: CN1CCOC(c2ccccc2)c2ccccc2C1 (stereo not given) [Nefopam hydrochloride]
A) inactive

Q) Entry to check: CC(=O)Oc1cc(C(F)(F)F)ccc1C(=O)O [Triflusal]
A) inactive

Q) Entry to check: CC(C)OC(=O)C(C)(C)Oc1ccc(C(=O)c2ccc(Cl)cc2)cc1 [Fenofibrate]
A) inactive

Q) Entry to check: C=C1c2c(Cl)ccc(O)c2C(O)=C2C(=O)[C@]3(O)C(O)=C(C(N)=O)C(=O)[C@@H](N(C)C)[C@@H]3[C@@H](O)[C@H]12.O=C(O)c1cc(S(=O)(=O)O)ccc1O [Meclocycline sulfosalicylate]
A) active

Q) Entry to check: COC1=CC(=O)C[C@@H](C)[C@]12Oc1c(Cl)c(OC)cc(OC)c1C2=O [Griseofulvin]
A) inactive

Q) Entry to check: CCCC1O[C@@H]2C[C@H]3[C@@H]4CCC5=CC(=O)C=C[C@]5(C)[C@H]4[C@@H](O)C[C@]3(C)[C@]2(C(=O)CO)O1 (stereo not given in full) [Budesonide]
A) inactive

Q) Entry to check: CCCN(CCC)CCc1cccc2c1CC(=O)N2 [Ropinirole hydrochloride]
A) inactive

Q) Entry to check: Nc1ccc(/N=N/c2ccccc2)c(N)n1 [Phenazopyridine hydrochloride]
A) inactive

Q) Entry to check: OC(CNCC(O)C1CCc2cc(F)ccc2O1)C1CCc2cc(F)ccc2O1 (stereo not given) [Nebivolol hydrochloride]
A) inactive

Q) Entry to check: CC(C)(O/N=C(\C(=O)N[C@@H]1C(=O)N2C(C(=O)[O-])=C(C[n+]3ccccc3)CS[C@H]12)c1csc(N)n1)C(=O)O [Ceftazidime pentahydrate]
A) active

Q) Entry to check: O=C(O)CSCC(=O)NC1CCSC1=O (stereo not given) [Erdosteine]
A) inactive

Q) Entry to check: CN1C(=O)OC(C)(C)C1=O [Trimethadione]
A) inactive

Q) Entry to check: Nc1c2ccccc2nc2ccccc12 [Aminacrine]
A) inactive

Q) Entry to check: CC(=O)c1ccc(S(=O)(=O)NC(=O)NC2CCCCC2)cc1 [Acetohexamide]
A) inactive

Q) Entry to check: CC(=O)Oc1cc2c(s1)CCN(C(C(=O)C1CC1)c1ccccc1F)C2 (stereo not given) [Prasugrel]
A) inactive

Q) Entry to check: Nc1c(Br)cc(Br)cc1CN[C@H]1CC[C@H](O)CC1 [Ambroxol hydrochloride]
A) inactive

Q) Entry to check: CC(=O)Nc1ccc(OC(=O)c2ccccc2O)cc1 [Acetaminosalol]
A) inactive

Entry source: the supplement of paper PMC12350171
